# System: murine splenocyte suspensions (BALB/c and C57BL/6J mice)
# assayInfo: Mixed Lymphocyte Reaction (MLR)
# Type: cell-based
# statedConditions: Mus musculus, Splenocyte; 0.8 μg/ml; read-out: % MLR (percentage of positive control)
Answer each item with its documented activity at 0.8 µg/mL.
Numbers only, in %.

CCCCCCCCCCCCCCC/C=C/C(O)C#N (stereo not drawn): 85

For each listed entry, give its activity at 0.8 µg/mL.
1. CCCCCCCCCCCCCCCC=O
2. C#CC(C)(O)/C=C/CCCCCCCCCCCCCCC (stereo not drawn)
3. C#CC(O)CCCCCCCCCCCCCCCCC (stereo not drawn)

Response given:
80
171
0

Return reported activity at 0.8 µg/mL values for all items listed beneath this line.
1. C#CC(O)/C=C/CCCCCCCCCCCCCCC (stereo not drawn)
2. CC#CC(O)/C=C/CCCCCCCCCCCCCCC (stereo not drawn)
3. CCCCCCCCCCCCCCCCO

Response given:
1. 0
2. 83
3. 127

# batch: return activity at 0.8 µg/mL for each of the 2 molecules below
1. C#CC(/C=C/CCCCCCCCCCCCCCC)OC(C)=O (stereo not drawn)
2. CCCCCCCCCCCCCCC/C=C/C=O

Response given:
1. 0
2. 135

---

# assayInfo: Lymphocyte Viability Assay (LCV)
# Type: cell-based, murine
# statedConditions: mouse, splenocytes, 0.05 μg/ml; read-out: % LCV (percentage of positive control)
# Source text: II. Lymphocyte Viability Assay 1. Compounds were similarly tested in parallel with the MLR to determine their toxic effects on lymphoid cells using the lymphocyte viability assay (LCV). 2. […] 7. Values were obtained by comparing the optical densities (determined at 570 and 650 nm) of wells containing the test compounds with those of wells containing cells and medium only (positive control). The results are expressed as a percentage of the positive control. […]
# label = satisfied if viability < 70% else not satisfied

Answered cases to consult:
C#CC(O)/C=C/CCCCCCCCCCCCCCC (stereo not shown): satisfied
C#CC(O)CCCC (stereo not shown): not satisfied
C#CC(/C=C/CCCCCCCCCCCCCCC)OC(C)=O (stereo not shown): satisfied
C#CC(O)C=CC=CCCCC (stereo not shown): not satisfied
C=CC(O)CCCCCCCCCCCCCCCC (stereo not shown): not satisfied

Challenge: For this compound, is viability lower than 70%? C#CC(O)CCC=CCCCCC (stereo not shown)
Response given: satisfied

---

# assayInfo: Lymphocyte Viability Assay (LCV)
# Type: cell-based, murine
# statedConditions: mouse, splenocytes, 12.5 μg/ml; read-out: % LCV (percentage of positive control)
I'd be grateful if you could share measured viability for these entries.
One number for each entry, in %.

Illustrative cases are given below, each with its answer.
C#CC(/C=C/CCCCCCCCCCCCCCC)OC(C)=O (stereo not drawn): 23
CCCCCCCCCCCCCCCC=O: 153
CCCCCCCCCCCCCCC/C=C/C=O: 89
CC#CC(O)/C=C/CCCCCCCCCCCCCCC (stereo not drawn): 67
CCCCCCCCCCCCCCC/C=C/C(O)C#N (stereo not drawn): 77

Hi! Can you tell me viability for each of these molecules?
1. C#CC(O)CCCCCCCCCCCCCCCCC (stereo not drawn)
2. C#CC(C)(O)/C=C/CCCCCCCCCCCCCCC (stereo not drawn)
3. C#CC(O)/C=C/CCCCCCCCCCCCCCC (stereo not drawn)

Response given:
[7, 54, 19]

Challenge: Which viability value belongs to CCCCCCCCCCCCCCCCO ?
Response given: 0

---

# assayInfo: Lymphocyte Viability Assay (LCV)
# Format: cell-based, murine
# statedConditions: mouse, splenocytes, 5.0 μg/ml; read-out: % LCV (percentage of positive control)
measurementLabel: viability (%)
Numbers only, in %.

C=CC(O)CCCCCCCCCCCCCCCC (centres unmarked): 2
C#CC(O)CCC=CCCCCC (centres unmarked): 45
C#CC(=O)CCCCCCCCCCCCCCCC: 47
C#CC(O)CCCCCCCCCCCCCCCC (centres unmarked): 24
C#CC(O)CCCCCCCCCCCCCCC (centres unmarked): 36

Would you be so kind as to report viability for each listed record?
1. C#CC(O)CCCC (centres unmarked)
2. C#CC(O)CCCCCCC (centres unmarked)
3. C#CC(O)C=CC=CCCCC (centres unmarked)

Response given:
[0, 70, 14]

---

# assayInfo: Lymphocyte Viability Assay (LCV)
# Assay type: cell-based, murine
# statedConditions: mouse, splenocytes, 0.2 μg/ml; read-out: % LCV (percentage of positive control)
# Description: II. Lymphocyte Viability Assay 1. Compounds were similarly tested in parallel with the MLR to determine their toxic effects on lymphoid cells using the lymphocyte viability assay (LCV). 2. […] 7. Values were obtained by comparing the optical densities (determined at 570 and 650 nm) of wells containing the test compounds with those of wells containing cells and medium only (positive control). The results are expressed as a percentage of the positive control. […]
Hi there, I'd appreciate the recorded viability for every entry that follows.
Remember to follow the number with its unit.

Some molecules with recorded viability:
C#CC(O)CCCCCCCCCCCCCCCCC (stereo not drawn): 68%
CC#CC(O)/C=C/CCCCCCCCCCCCCCC (stereo not drawn): 107%
CCCCCCCCCCCCCCC/C=C/C=O: 175%
CCCCCCCCCCCCCCC/C=C/C(O)C#N (stereo not drawn): 135%
C#CC(/C=C/CCCCCCCCCCCCCCC)OC(C)=O (stereo not drawn): 53%
CCCCCCCCCCCCCCCC=O: 182%
C#CC(O)/C=C/CCCCCCCCCCCCCCC (stereo not drawn): 42%
CCCCCCCCCCCCCCCCO: 86%

Challenge: Form field: reported viability of C#CC(C)(O)/C=C/CCCCCCCCCCCCCCC (stereo not drawn)
Response given: 107%

---

# Test system: lymphoid cells (murine BALB/c splenocytes)
# assayInfo: Lymphocyte Viability Assay (LCV)
# Assay type: cell-based
# statedConditions: 0.2 μg/ml
measurementLabel: % LCV (percentage of positive control)
Put down the number, then write its unit next to it.

As a guide, the following entries are already answered.
C#CC(O)C=CCCCCC (stereo not shown) [CH3 (CH2)4 CH= CH--CHOH--C≡CH]: 121%
CCCCCC=CC(O)C#CCCCCCCCC (stereo not shown) [CH3 (CH2)4 CH=CH--CHOH--C≡C--(CH2)7 CH3]: 119%
C#CC(O)C=CCCCCCCCCCCCCCCCCCCC (stereo not shown) [CH3 (CH2)18 CH=CH--CHOH--C≡CH]: 70%

Challenge: Find the measured % LCV (percentage of positive control): item C#CC(O)C=CCCCCCCCCC (stereo not shown) [CH3 (CH2)8 CH=CH--CHOH--C≡CH] , target or system lymphoid cells (murine BALB/c splenocytes).
Response given: 44%

---

# assayInfo: Lymphocyte Viability Assay (LCV)
# Format: cell-based, murine
# statedConditions: mouse, splenocytes, 0.8 μg/ml; read-out: % LCV (percentage of positive control)
Lab note: anything with viability below 40% is marked Satisfied; values at 40% or higher are marked Not satisfied.

CCCCCCCCCCCCCCCC=O: Not satisfied
CC#CC(O)/C=C/CCCCCCCCCCCCCCC (stereo not drawn): Not satisfied
CCCCCCCCCCCCCCCCO: Satisfied
C#CC(O)/C=C/CCCCCCCCCCCCCCC (stereo not drawn): Satisfied

Challenge: viability under 40%? Item: C#CC(/C=C/CCCCCCCCCCCCCCC)OC(C)=O (stereo not drawn)
Response given: Satisfied

Challenge: Input CCCCCCCCCCCCCCC/C=C/C(O)C#N (stereo not drawn) ; condition: viability strictly below 40%. Does it hold?
Response given: Not satisfied

Challenge: Please check: viability for CCCCCCCCCCCCCCC/C=C/C=O , strictly under 40% or not?
Response given: Not satisfied

Challenge: Input C#CC(C)(O)/C=C/CCCCCCCCCCCCCCC (stereo not drawn) ; condition: viability strictly below 40%. Does it hold?
Response given: Not satisfied

---

# Tested on: murine splenocyte suspensions (BALB/c and C57BL/6J mice)
# assayInfo: Mixed Lymphocyte Reaction (MLR)
# Type: cell-based
# statedConditions: Mus musculus, Splenocyte; 0.05 μg/ml; read-out: % MLR (percentage of positive control)
Give measured activity at 0.05 µg/mL for each item. Keep answers brief.

The examples below pair each entry with its known result.
CCCCCCCCCCCCCCC/C=C/C=O: 150%
CC#CC(O)/C=C/CCCCCCCCCCCCCCC (centres unmarked): 137%
C#CC(O)C=CC=CCCCC (centres unmarked): 134%
C#CC(O)CCCCCCC (centres unmarked): 117%
CCCCCCCCCCCCCCC/C=C/C(O)C#N (centres unmarked): 60%
C#CC(O)CCCCCCCCCCCCCCCC (centres unmarked): 0%

Quick one: give me activity at 0.05 µg/mL for each item below, same order please.
1. CCCCCCCCCCCCCCCC=O
2. C#CC(/C=C/CCCCCCCCCCCCCCC)OC(C)=O (centres unmarked)
3. C#CC(O)CCCCCCCCCCCCCCCCC (centres unmarked)

Response given:
1: 59%; 2: 73%; 3: 0%

Would you be so kind as to report activity at 0.05 µg/mL for each listed record?
1. C#CC(O)/C=C/CCCCCCCCCCCCCCC (centres unmarked)
2. C#CC(O)CCCC (centres unmarked)
3. C#CC(O)CCCCCCCCCCCCCCC (centres unmarked)
4. C=CC(O)CCCCCCCCCCCCCCCC (centres unmarked)
5. C#CC(O)CCC=CCCCCC (centres unmarked)
6. C#CC(=O)CCCCCCCCCCCCCCCC
7. C#CC(C)(O)/C=C/CCCCCCCCCCCCCCC (centres unmarked)

Response given:
["0%", "89%", "100%", "99%", "137%", "114%", "152%"]

Challenge: # input compound: CCCCCCCCCCCCCCCCO ; wanted: its activity at 0.05 µg/mL
Response given: 136%
